- Test system: CAL-78 (Chondrosarcoma)
- Test description: Bliss excess, mean over the matrix (fraction); higher = more synergy
Measured property: Bliss excess

Worked set:
Compound	Data value
CN(C)CCCOc1ccc(-c2ccc3ncc4c(c3c2)n(C2CCOCC2)c(=O)n4C)cn1 [AZD0156] + CCN(CCO)CCCOc1ccc2c(Nc3cc(CC(=O)Nc4cccc(F)c4)[nH]n3)ncnc2c1 [AZD2811] (first compound max 1 µM, 7x7, partner max 1 µM)	0.006
CC1(C)CCC(CN2CCN(c3ccc(C(=O)NS(=O)(=O)c4ccc(NCC5CCOCC5)c([N+](=O)[O-])c4)c(Oc4cnc5[nH]ccc5c4)c3)CC2)=C(c2ccc(Cl)cc2)C1 [Venetoclax] + C[C@@H](Nc1cc(F)cc(F)c1)c1cc(C(=O)N(C)C)cc2c(=O)cc(N3CCOCC3)oc12 [AZD8186] (first compound max 1 µM, 7x7, partner max 3 µM)	-0.0152

Moving on to another compound below.
Q: Which value of Bliss excess has been reported for Cc1c2c(nn1C)CSCc1cc(n(C)n1)CSc1cc(c3ccccc3c1)OCCCc1c(C(=O)O)n(C)c3c-2c(Cl)ccc13 [AZD5991] + Cc1cc2ncnn2cc1Nc1ncc2c(n1)n(C1CCOCC1)c(=O)n2C [AZD7648] (first compound max 1 µM, 7x7, partner max 10 µM) in the records?
Result: -0.0448

----------
- Test system: U-266 (Plasma Cell Myeloma)
- Test description: combination Emax (second highest fraction inhibited in the dose matrix, 72 h); higher = more inhibition; extreme values may be limits of the assay
If the reported combination Emax equals or exceeds 0.6, assign 1. If not, assign 0.

Example entries and their recorded answers appear below.
Molecule	Assigned class
C=CCn1c(=O)c2cnc(Nc3ccc(N4CCN(C)CC4)cc3)nc2n1-c1cccc(C(C)(C)O)n1 [AZD1775] + O=C(c1cc(Cc2n[nH]c(=O)c3ccccc23)ccc1F)N1CCN(C(=O)C2CC2)CC1 [Olaparib] (first compound max 1 µM, partner max 10 µM)	1
CCc1c2c(nc3ccc(O)cc13)-c1cc3c(c(=O)n1C2)COC(=O)[C@]3(O)CC [SN-38] + CN(C)CCCOc1ccc(-c2ccc3ncc4c(c3c2)n(C2CCOCC2)c(=O)n4C)cn1 [AZD0156] (first compound max 0.3 µM, 7x7, partner max 1 µM)	0
CC(=O)c1c(C)c2cnc(Nc3ccc(N4CCNCC4)cn3)nc2n(C2CCCC2)c1=O [Palbociclib] + CC1(C)CCC(CN2CCN(c3ccc(C(=O)NS(=O)(=O)c4ccc(NCC5CCOCC5)c([N+](=O)[O-])c4)c(Oc4cnc5[nH]ccc5c4)c3)CC2)=C(c2ccc(Cl)cc2)C1 [Venetoclax] (first compound max 10 µM, 7x7, partner max 1 µM)	0
CS(=O)(=O)CCNCc1ccc(-c2ccc3ncnc(Nc4ccc(OCc5cccc(F)c5)c(Cl)c4)c3c2)o1 [Lapatinib] + NC1(c2ccc(-c3nc4ccn5c(=O)[nH]nc5c4cc3-c3ccccc3)cc2)CCC1 [MK-2206] (first compound max 10 µM, 7x7, partner max 10 µM)	0

Next:
Q: Record Cn1cnc2c(F)c(Nc3ccc(Br)cc3Cl)c(C(=O)NOCCO)cc21 [Selumetinib] + C[C@@H]1COCCN1C2=NC(=NC(=C2)C3(CC3)[S@](=N)(=O)C)C4=C5C=CNC5=NC=C4 [AZD6738] (first compound max 10 µM, 7x7, partner max 10 µM) ; criterion: combination Emax no lower than 0.6. Met?
Result: 1

----------
- System: SK-N-FI (Neuroblastoma)
- Test description: Bliss excess, mean over the matrix (fraction); higher = more synergy
Measured property: Bliss excess
Answers are plain numbers.

Worked set:
Compound	Data value
CN(C)CCCOc1ccc(-c2ccc3ncc4c(c3c2)n(C2CCOCC2)c(=O)n4C)cn1 [AZD0156] + O=C(c1cc(Cc2n[nH]c(=O)c3ccccc23)ccc1F)N1CCN(C(=O)C2CC2)CC1 [Olaparib] (first compound max 3 µM, partner max 3 µM)	-0.0123
CN(CCO)CC[C@H](CSc1ccccc1)Nc1ccc(S(=O)(=O)NC(=O)c2ccc(N3CCC([C@@H](O)c4ccccc4-c4ccc(Cl)cc4)CC3)cc2)cc1S(=O)(=O)C(F)(F)F [AZD4320] + C[C@@H]1COCCN1C2=NC(=NC(=C2)C3(CC3)[S@](=N)(=O)C)C4=C5C=CNC5=NC=C4 [AZD6738] (first compound max 1 µM, 7x7, partner max 10 µM)	-0.0299
CS(=O)(=O)CCNCc1ccc(-c2ccc3ncnc(Nc4ccc(OCc5cccc(F)c5)c(Cl)c4)c3c2)o1 [Lapatinib] + NC1(c2ccc(-c3nc4ccn5c(=O)[nH]nc5c4cc3-c3ccccc3)cc2)CCC1 [MK-2206] (first compound max 10 µM, 7x7, partner max 10 µM)	-0.0027

Dear reader, for each entry below, please note its Bliss excess.
1. CC(=O)c1c(C)c2cnc(Nc3ccc(N4CCNCC4)cn3)nc2n(C2CCCC2)c1=O [Palbociclib] + CC1(C)CCC(CN2CCN(c3ccc(C(=O)NS(=O)(=O)c4ccc(NCC5CCOCC5)c([N+](=O)[O-])c4)c(Oc4cnc5[nH]ccc5c4)c3)CC2)=C(c2ccc(Cl)cc2)C1 [Venetoclax] (first compound max 10 µM, 7x7, partner max 1 µM)
2. CN(C)CCCOc1ccc(-c2ccc3ncc4c(c3c2)n(C2CCOCC2)c(=O)n4C)cn1 [AZD0156] + CCN(CCO)CCCOc1ccc2c(Nc3cc(CC(=O)Nc4cccc(F)c4)[nH]n3)ncnc2c1 [AZD2811] (first compound max 1 µM, 7x7, partner max 1 µM)
3. Cc1c2c(nn1C)CSCc1cc(n(C)n1)CSc1cc(c3ccccc3c1)OCCCc1c(C(=O)O)n(C)c3c-2c(Cl)ccc13 [AZD5991] + CCN(CCO)CCCOc1ccc2c(Nc3cc(CC(=O)Nc4cccc(F)c4)[nH]n3)ncnc2c1 [AZD2811] (first compound max 1 µM, 7x7, partner max 1 µM)
4. Cc1c2c(nn1C)CSCc1cc(n(C)n1)CSc1cc(c3ccccc3c1)OCCCc1c(C(=O)O)n(C)c3c-2c(Cl)ccc13 [AZD5991] + CC(=O)O[C@H]1C(=O)[C@@]2(C)[C@H]([C@H](OC(=O)c3ccccc3)[C@]3(O)C[C@H](OC(=O)[C@H](O)[C@@H](NC(=O)c4ccccc4)c4ccccc4)C(C)=C1C3(C)C)[C@]1(OC(C)=O)CO[C@@H]1C[C@@H]2O [Paclitaxel] (first compound max 1 µM, 7x7, partner max 3 µM)

Result:
1. 0.0104
2. -0.0144
3. 0.0054
4. -0.0177

----------
- Test system: DSH1 (Bladder Carcinoma)
- Test description: Bliss excess, mean over the matrix (fraction); higher = more synergy
Record form. Attribute: Bliss excess. Fill in for each entry.
Numbers only.

Worked set:
Molecule	Subject of test	Measured property	Data value
Cc1c2c(nn1C)CSCc1cc(n(C)n1)CSc1cc(c3ccccc3c1)OCCCc1c(C(=O)O)n(C)c3c-2c(Cl)ccc13 [AZD5991] + CC(=O)O[C@H]1C(=O)[C@@]2(C)[C@H]([C@H](OC(=O)c3ccccc3)[C@]3(O)C[C@H](OC(=O)[C@H](O)[C@@H](NC(=O)c4ccccc4)c4ccccc4)C(C)=C1C3(C)C)[C@]1(OC(C)=O)CO[C@@H]1C[C@@H]2O [Paclitaxel] (first compound max 1 µM, 7x7, partner max 3 µM)	DSH1 (Bladder Carcinoma)	Bliss excess	0.0523
Cc1cc2ncnn2cc1Nc1ncc2c(n1)n(C1CCOCC1)c(=O)n2C [AZD7648] + CN(C)CCCOc1ccc(-c2ccc3ncc4c(c3c2)n(C2CCOCC2)c(=O)n4C)cn1 [AZD0156] (first compound max 10 µM, 7x7, partner max 1 µM)	DSH1 (Bladder Carcinoma)	Bliss excess	0.0171
Cc1c2c(nn1C)CSCc1cc(n(C)n1)CSc1cc(c3ccccc3c1)OCCCc1c(C(=O)O)n(C)c3c-2c(Cl)ccc13 [AZD5991] + CC1(C)CCC(CN2CCN(c3ccc(C(=O)NS(=O)(=O)c4ccc(NCC5CCOCC5)c([N+](=O)[O-])c4)c(Oc4cnc5[nH]ccc5c4)c3)CC2)=C(c2ccc(Cl)cc2)C1 [Venetoclax] (first compound max 1 µM, 7x7, partner max 1 µM)	DSH1 (Bladder Carcinoma)	Bliss excess	0.0397
CN(CCO)CC[C@H](CSc1ccccc1)Nc1ccc(S(=O)(=O)NC(=O)c2ccc(N3CCC([C@@H](O)c4ccccc4-c4ccc(Cl)cc4)CC3)cc2)cc1S(=O)(=O)C(F)(F)F [AZD4320] + C=CCn1c(=O)c2cnc(Nc3ccc(N4CCN(C)CC4)cc3)nc2n1-c1cccc(C(C)(C)O)n1 [AZD1775] (first compound max 1 µM, partner max 1 µM)	DSH1 (Bladder Carcinoma)	Bliss excess	0.0646

Dear reader, for each entry below, please note its Bliss excess.
1. CN(CCO)CC[C@H](CSc1ccccc1)Nc1ccc(S(=O)(=O)NC(=O)c2ccc(N3CCC([C@@H](O)c4ccccc4-c4ccc(Cl)cc4)CC3)cc2)cc1S(=O)(=O)C(F)(F)F [AZD4320] + CCN(CCO)CCCOc1ccc2c(Nc3cc(CC(=O)Nc4cccc(F)c4)[nH]n3)ncnc2c1 [AZD2811] (first compound max 1 µM, 7x7, partner max 1 µM)
2. C[C@@H](c1ccc2nccn2c1)n1nnc2ncc(-c3cnn(C)c3)nc21 [Savolitinib] + CC1(C)CCC(CN2CCN(c3ccc(C(=O)NS(=O)(=O)c4ccc(NCC5CCOCC5)c([N+](=O)[O-])c4)c(Oc4cnc5[nH]ccc5c4)c3)CC2)=C(c2ccc(Cl)cc2)C1 [Venetoclax] (first compound max 1 µM, 7x7, partner max 1 µM)

Result:
1: 0.0821; 2: 0
